- Tested on: A498 renal
- Procedure Text: NCI tumour cell line growth inhibition, 48 h
Value Type: TGI

Input line: Which TGI is listed for CN(C)C1COC2Cc3ccccc3C1O2 (stereo not drawn) ?
Output line: > 100 µM

Input line: Which TGI is listed for CC(C)[C@H](NC(=O)[C@@H](O)[C@H](N)Cc1ccccc1)C(=O)N[C@@H](Cc1ccccc1)C(=O)O ?
Output line: > 100 µM

Input line: Which TGI is listed for COc1cc2c(/C=C3/C(=O)Nc4c3ccc3ccccc43)c(Cl)[nH]c2cc1C ?
Output line: > 50 µM

Input line: Which TGI is listed for FC(F)(F)c1ccccc1C=NC12CC3CC(CC(C3)C1)C2 ?
Output line: > 100 µM

Input line: Which TGI is listed for C/C(CN1C(=O)c2ccccc2C1=O)=N\NS(C)(=O)=O ?
Output line: > 100 µM

Input line: Which TGI is listed for Cn1c(=O)c2c(nc3sc4ncccc4c(=O)n32)n(C)c1=O ?
Output line: > 100 µM

Input line: Which TGI is listed for COC(=O)C1CCc2nnc(-c3cccnc3)n21 (stereo not drawn) ?
Output line: > 100 µM

Input line: Which TGI is listed for O=CNc1ccc2c(c1)Cc1cc([N+](=O)[O-])ccc1-2 ?
Output line: > 58.1 µM

Input line: Which TGI is listed for O=C1[C@H](c2ccccc2)C2c3ccccc3CCN12 (stereo partly drawn) ?
Output line: > 100 µM

Input line: Which TGI is listed for COC(=O)c1c/c(=N\NC(=O)CC(=O)Nc2ccc(C)cc2)c2ccccc2o1 ?
Output line: > 100 µM

Input line: Which TGI is listed for COc1ccc(C2C3=C(CCCC3=O)N(c3ccccc3)C3=C2C(=O)CCC3)cc1 ?
Output line: > 100 µM

Input line: Which TGI is listed for CNC(=S)N/N=C(/C)CCC/C(C)=N/NC(=S)NC ?
Output line: > 100 µM

Input line: Which TGI is listed for CCOC(=O)c1cc(Cl)ccc1OC(N)=O ?
Output line: > 100 µM

Input line: Which TGI is listed for CN(C)N1C(=O)CC2(CCN(CCCC(=O)c3ccc(F)cc3)CC2)C1=O ?
Output line: > 100 µM

Input line: Which TGI is listed for Clc1ccc(-c2cc(-c3nc4ccccc4[nH]3)no2)cc1 ?
Output line: 47.5 µM

Input line: Which TGI is listed for O=C(Nc1cccc2ccccc12)c1cc2ccccc2cc1O ?
Output line: 3.91 µM

Input line: Which TGI is listed for COC1(C)Cc2c(c(C)c(O)c3c2C(=O)C=C(Cl)C3=O)O1 (stereo not drawn) ?
Output line: > 100 µM

Input line: Which TGI is listed for CN(C)CCOc1cccc(NC2=C(Cl)C(=O)C(Nc3cccc(OCCN(C)C)c3)=C(Cl)C2=O)c1 ?
Output line: 3.26 µM

----------
For each entry below, report its TGI value.
- Test system: MCF7 breast
- Procedure Text: NCI tumour cell line growth inhibition, 48 h

Input line: Which TGI is listed for O=S(=O)(c1ccccc1)C1CN(Cc2ccccc2)CCN(Cc2ccccc2)C1 ?
Output line: > 100 µM

Input line: Which TGI is listed for COc1ccc2nc(-c3ccc(O)cc3)cn2c1 ?
Output line: > 100 µM

Input line: Which TGI is listed for COc1ccc(C2C3=C(CCCC3=O)N(c3ccccc3)C3=C2C(=O)CCC3)cc1 ?
Output line: > 100 µM

Input line: Which TGI is listed for CC(=O)O[C@H]1C(=O)[C@@]2(C)[C@H]([C@H](OC(=O)c3ccncc3)[C@]3(O)C[C@H](OC(=O)[C@H](O)[C@@H](NC(=O)c4ccccc4)c4ccccc4)C(C)=C1C3(C)C)[C@]1(OC(C)=O)CO[C@@H]1C[C@@H]2O ?
Output line: > 25 µM

Input line: Which TGI is listed for COc1ccc(/C=C2\CCCC3=C2N=C2SC=NN2C3c2ccc(OC)c(OC)c2)cc1OC (centres undefined) ?
Output line: > 100 µM

Input line: Which TGI is listed for O=C(CN1CCCC1)Nc1ccc2sc3ccccc3c(=O)c2n1 ?
Output line: > 100 µM

Input line: Which TGI is listed for CCC(CCCCC1CC[C@H]2CC(=O)C[C@@H]12)OC (some centres undefined) ?
Output line: > 100 µM

Input line: Which TGI is listed for NNc1nc(-c2ccccn2)nc2sc3c(c12)CCCCCC3 ?
Output line: > 100 µM

Input line: Which TGI is listed for N#C/C(N)=C(\C#N)N=CNc1ccccc1N ?
Output line: > 100 µM

----------
- System: SW-620 colon
- Procedure Text: NCI tumour cell line growth inhibition, 48 h
Value Type: TGI

Input line: Which TGI is listed for CN(C)CCOc1cccc(NC2=C(Cl)C(=O)C(Nc3cccc(OCCN(C)C)c3)=C(Cl)C2=O)c1 ?
Output line: 0.438 µM

Input line: Which TGI is listed for CCOC(=O)c1cc(C2(OC)CCN(Cc3ccccc3)C2=O)c(-c2cc(C)no2)[nH]1 (stereo not drawn) ?
Output line: > 100 µM

Input line: Which TGI is listed for O=C1C(c2c(O)[nH]c3ccc(S(=O)(=O)N(CCO)CCO)cc23)=Nc2ccccc21 ?
Output line: > 100 µM

----------
- Test system: HL-60(TB) leukemia
- Procedure Text: NCI tumour cell line growth inhibition, 48 h; in the data active = GI50 below about 0.43 µM; inactive = the rest
Could you please pick one outcome from this set? yes (1) for active, no (0) for inactive

Input line: # fetch the recorded call for CCC1=C[C@H]2CN(CCc3c([nH]c4ccccc34)[C@@](C(=O)OC)(c3cc4c(cc3OC)N(C)[C@H]3[C@@](O)(C(=O)OC)[C@H](OC(C)=O)[C@]5(CC)[C@@H]6C[C@@H]6CN6CC[C@]43[C@@H]65)C2)C1 here
Output line: yes (1)

Input line: # fetch the recorded call for O=C(Nc1cc(Cl)cc(Cl)c1)c1ccc(NC2=C(Cl)C(=O)N(Cc3ccccc3)C2=O)cc1 here
Output line: no (0)

Input line: # fetch the recorded call for COc1ccc2oc(-c3ccc(Cl)cc3)c(N3CCN(C)CC3)c2c1 here
Output line: no (0)

Input line: # fetch the recorded call for CCN(CC)CCCC(C)Nc1ccnc2cc(Cl)c(SCc3ccccc3)cc12 (centres undefined) here
Output line: no (0)

----------
- System: LOX IMVI melanoma
- Procedure Text: NCI tumour cell line growth inhibition, 48 h
Value Type: TGI

Input line: Which TGI is listed for COc1ccc(N2C(=O)CC(c3c[nH]c4ccccc34)C2=O)cc1 (stereo not given) ?
Output line: > 100 µM

Input line: Which TGI is listed for COc1cc2c(cc1C)NC(=O)/C2=C/c1c(C)nc2sc(C)cn12 ?
Output line: > 100 µM

Input line: Which TGI is listed for NNc1nc(-c2ccccn2)nc2sc3c(c12)CCCCCC3 ?
Output line: > 100 µM

Input line: Which TGI is listed for CC1(C)OC([C@H](O)CO)C([C@H]2NCCS2)O1 (stereo not given in full) ?
Output line: > 100 µM

Input line: Which TGI is listed for O=S(=O)(c1ccccc1)C1CN(Cc2ccccc2)CCN(Cc2ccccc2)C1 ?
Output line: > 61.5 µM

----------
- System: SF-539 CNS
- Procedure Text: NCI tumour cell line growth inhibition, 48 h
Value Type: TGI

Input line: Which TGI is listed for COC(=O)c1c/c(=N\NC(=O)CC(=O)Nc2ccc(C)cc2)c2ccccc2o1 ?
Output line: > 100 µM

Input line: Which TGI is listed for C[C@]12CCC(=O)C=C1CC[C@@H]1[C@@H]2CC[C@]2(C)C(=O)/C(=C\c3ccccc3)C[C@@H]12 ?
Output line: > 63.6 µM

Input line: Which TGI is listed for COc1ccc(C2C3=C(CCCC3=O)N(c3ccccc3)C3=C2C(=O)CCC3)cc1 ?
Output line: > 100 µM

Input line: Which TGI is listed for O=C(Cc1nc2ccccc2s1)NC12CC3CC(CC(C3)C1)C2 ?
Output line: > 100 µM

----------
- System: OVCAR-3 ovarian
- Procedure Text: NCI tumour cell line growth inhibition, 48 h; in the data active means GI50 below about 0.43 µM; inactive means the rest
Could you please pick one outcome from this set? Y for active, N for inactive

Input line: # fetch the recorded call for CCOCC[P+](c1ccccc1)(c1ccccc1)c1ccccc1 here
Output line: N

Input line: # fetch the recorded call for COc1ccc(-c2oncc2-c2cc(OC)c3c(c2)OCO3)cc1 here
Output line: N

Input line: # fetch the recorded call for C#CCOc1c(OC)cc(C(=O)/C(C)=C/c2cccc(N=[N+]=[N-])c2)cc1OC here
Output line: Y

Input line: # fetch the recorded call for C[C@H]1[C@H](C)CC[C@]2(C(=O)O)CC[C@]3(C)C(=CC[C@@H]4[C@@]5(C)CC[C@H](OC(=O)/C=C\c6ccc(O)cc6)C(C)(C)[C@@H]5CC[C@]43C)[C@H]12 here
Output line: N

Input line: # fetch the recorded call for N#CC(C#N)=Cc1ccc(-c2ccc(-c3nc4ccccc4s3)cc2)s1 here
Output line: N

Input line: # fetch the recorded call for CCN1CCN(Cc2ccc3cc(C(=O)Nc4cc(NC(=O)c5ccc6c(c5)OCCO6)ccc4F)ccc3n2)CC1 here
Output line: Y
